For each of the molecules below, state its IC50.
# assay.target: ATP-dependent translocase ABCB1 (Homo sapiens)
# Sequence (P08183 whole entry): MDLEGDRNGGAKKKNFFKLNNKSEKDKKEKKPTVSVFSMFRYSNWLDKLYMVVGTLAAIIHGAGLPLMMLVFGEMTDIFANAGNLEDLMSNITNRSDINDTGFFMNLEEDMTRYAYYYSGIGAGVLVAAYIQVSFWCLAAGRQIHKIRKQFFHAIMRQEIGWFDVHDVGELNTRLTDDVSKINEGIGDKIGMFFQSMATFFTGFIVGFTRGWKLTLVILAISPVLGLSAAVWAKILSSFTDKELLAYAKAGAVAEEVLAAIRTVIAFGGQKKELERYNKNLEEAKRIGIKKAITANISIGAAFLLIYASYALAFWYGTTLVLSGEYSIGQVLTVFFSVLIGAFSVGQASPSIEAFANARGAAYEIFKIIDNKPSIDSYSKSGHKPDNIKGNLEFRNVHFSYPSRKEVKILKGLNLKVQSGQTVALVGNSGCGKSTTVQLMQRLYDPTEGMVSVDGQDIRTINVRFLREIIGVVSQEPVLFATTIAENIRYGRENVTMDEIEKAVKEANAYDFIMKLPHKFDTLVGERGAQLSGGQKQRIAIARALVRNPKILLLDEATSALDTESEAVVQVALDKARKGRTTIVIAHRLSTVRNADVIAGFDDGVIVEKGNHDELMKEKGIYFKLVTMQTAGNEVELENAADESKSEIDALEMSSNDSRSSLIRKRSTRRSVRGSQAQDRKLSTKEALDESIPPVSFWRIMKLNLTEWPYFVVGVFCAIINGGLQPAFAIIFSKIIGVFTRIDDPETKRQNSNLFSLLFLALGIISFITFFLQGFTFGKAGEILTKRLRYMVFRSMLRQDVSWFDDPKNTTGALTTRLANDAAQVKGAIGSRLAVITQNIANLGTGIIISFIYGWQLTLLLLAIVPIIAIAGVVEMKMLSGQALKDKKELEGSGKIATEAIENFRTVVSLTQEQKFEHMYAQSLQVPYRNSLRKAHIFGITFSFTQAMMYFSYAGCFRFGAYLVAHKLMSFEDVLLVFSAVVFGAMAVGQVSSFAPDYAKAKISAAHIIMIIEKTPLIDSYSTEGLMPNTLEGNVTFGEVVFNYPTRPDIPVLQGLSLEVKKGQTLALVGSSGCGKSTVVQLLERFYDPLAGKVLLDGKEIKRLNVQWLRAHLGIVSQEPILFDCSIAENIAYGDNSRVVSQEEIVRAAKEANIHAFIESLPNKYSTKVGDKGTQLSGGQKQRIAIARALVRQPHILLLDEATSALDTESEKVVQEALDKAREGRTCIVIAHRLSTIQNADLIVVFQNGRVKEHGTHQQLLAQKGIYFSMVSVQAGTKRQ
# method.summary: Inhibition of human Pgp in anthracycline-resistant K562 cells assessed as drug level causing half maximal increase in nuclear concentration of pirarubicin
# test.context: read-out: Activity
Give bare numbers, in nM.

Completed entries (count: 5):
{"molecule": "COc1cc(/C=C/C(=O)OCCCN(C)CCCOC(=O)c2cc(OC)c(OC)c(OC)c2)cc(OC)c1OC", "measured.parameter": "IC50", "meas.value": 600}
{"molecule": "COc1cc(C(=O)OC2CCC(N(C)C3CCC(OC(=O)c4c5ccccc5cc5ccccc45)CC3)CC2)cc(OC)c1OC (mixture of isomers; cis)", "measured.parameter": "IC50", "meas.value": 300}
{"molecule": "COc1cc(/C=C/C(=O)OC2CCC(N(C)C3CCC(OC(=O)c4cc(OC)c(OC)c(OC)c4)CC3)CC2)cc(OC)c1OC (stereo in doubt)", "measured.parameter": "IC50", "meas.value": 320}
{"molecule": "COc1cc(C(=O)OC2CCC(N(C)C3CCC(OC(=O)c4c5ccccc5cc5ccccc45)CC3)CC2)cc(OC)c1OC (trans isomer)", "measured.parameter": "IC50", "meas.value": 300}
{"molecule": "COc1cc(/C=C/C(=O)OC2CCC(N(C)C3CCC(OC(=O)c4cc(OC)c(OC)c(OC)c4)CC3)CC2)cc(OC)c1OC (mixture of isomers; cis)", "measured.parameter": "IC50", "meas.value": 90}

Now turn to the next molecule.
INPUT: Entry COc1cc(/C=C/C(=O)OC2CCC(N(C)C3CCC(OC(=O)c4cc(OC)c(OC)c(OC)c4)CC3)CC2)cc(OC)c1OC (mixture of isomers; trans) : reported IC50 = ?
OUTPUT: 10
